Catalogue of Sedge, Umbrella plant response rating readings, one per entry.
# Test system: smallflower umbrella sedge
# assay-procedure: Test C flooded paddy test
# Format: in vivo, Cyperus difformis
# condition-description: 62 g ai/ha, scale 0 to 100
property-name: Sedge, Umbrella plant response rating

compound="CCC1=NN(C(C)(C)C)CC1C(=O)Nc1cc(C(=O)N2CC=CC2)ccc1F (racemic)" quantitative_result=50
compound=CCn1nc(C(C)(C)C)cc1C(=O)Nc1cccc(OC(F)(F)F)c1 quantitative_result=30
compound="CCN1N=C(C(C)(C)C)CC1C(=O)Nc1cc(C(=O)N2CCCC2)ccc1F (racemic)" quantitative_result=80

---

# Test system: barnyardgrass
# assay-procedure: Test B pre-/postemergence herbicide test
# Type: in vivo, Echinochloa crus-galli
# condition-description: 125 g ai/ha; 0 = no effect, 100 = complete control; preemergence
Catalogue of Barnyardgrass plant response rating (0 to 100 scale) readings, one per entry.
property-name: Barnyardgrass plant response rating (0 to 100 scale)

substance_smiles=Cc1nc(C(C)(C)C)sc1C(=O)Nc1cccc(C(=O)NCCF)c1 target_system=barnyardgrass quantitative_result=0
substance_smiles=CCn1nc(C2(C)CC2)cc1C(=O)Nc1cccc(C(=O)N2CC=CC2)c1 target_system=barnyardgrass quantitative_result=10
substance_smiles=CCn1nc(C(C)(C)C)cc1C(=O)Nc1cncc(C(=O)NCC(F)(F)F)n1 target_system=barnyardgrass quantitative_result=0
substance_smiles=CCn1nc(C(C)(C)C)cc1C(=O)Nc1cc(C(N)=O)ccc1F target_system=barnyardgrass quantitative_result=0
substance_smiles=CC(=O)c1cccc(NC(=O)c2cn(C(C)C)nc2C)c1 target_system=barnyardgrass quantitative_result=0
substance_smiles=CCn1nc(C(C)(C)C)cc1C(=O)Nc1cc(C(=O)OC(C)C)c(F)cc1F target_system=barnyardgrass quantitative_result=0
substance_smiles=CCc1nn(C(C)(C)C)cc1C(=O)Nc1cccc(C(C)=NO)c1 target_system=barnyardgrass quantitative_result=80
substance_smiles=C#CCNC(=O)c1cccc(NC(=O)c2sc(C(C)(C)C)nc2C)c1 target_system=barnyardgrass quantitative_result=0
substance_smiles=CCCOC(=O)c1cc(NC(=O)c2cc(C(C)(C)C)nn2CC)c(F)cc1F target_system=barnyardgrass quantitative_result=0
substance_smiles=CCn1nc(C(C)(C)C)cc1C(=O)Nc1ccnc(C(=O)NCCF)c1 target_system=barnyardgrass quantitative_result=0
substance_smiles=CCc1nc(C(C)(C)C)sc1C(=O)Nc1cc(C(=O)N(C)CC)ccc1F target_system=barnyardgrass quantitative_result=50

---

Catalogue of Cocklebur plant response rating readings, one per entry.
# System: cocklebur
# assay-procedure: Test B pre-/postemergence herbicide test
# Assay type: in vivo, Xanthium strumarium
# condition-description: postemergence, 500 g ai/ha; scale 0 to 100, 0 is no effect, 100 is complete control
property-name: Cocklebur plant response rating

compound="CCc1nn(C(C)(C)C)nc1C(=O)Nc1cc(C(=O)N2CCCCC2)ccc1F [Compound 381]" quantitative_result=20
compound="CCNC(=S)c1ccc(F)c(NC(=O)c2cc(C(C)(C)C)nn2CC)c1 [Compound 349]" quantitative_result=20
compound="CCc1nn(C(C)(C)CC)nc1C(=O)Nc1cccc(C(=O)N(C)C)c1 [Compound 372]" quantitative_result=30
compound="CCn1nc(C(C)(C)C)cc1C(=O)Nc1cncc(C(=O)N(C)C)n1 [Compound 287]" quantitative_result=10
compound="CCc1nn(C(C)C)nc1C(=O)Nc1cccc(C(=O)N2CC=CC2)c1 [Compound 359]" quantitative_result=30
